Where these numbers come from: patent US20240400708A1

Parameter Kd: see the listing below.
Target: feline FcRn complex (FcRn-α subunit and β-microglobulin) (feline)
Experiment: SPR (Biacore), FcRn on SA chip, pH 6
The figure you give is taken to be in nM; do not add the unit.

[[record]]
binder = "feline IgG1a mutant ID No. 367: S252Y, S434R, G402R (antibody, part only; not given: Variable domains, not shown: another chain or arm of the molecule) constant: ASTTAPSVFPLAPSCGTTSGATVALACLVLGYFPEPVTVSWNSGALTSGVHTFPAVLQASGLYSLSSMVTVPSSRWLSDTFTCNVAHPPSNTKVDKTVRKTDHPPGPKPCDCPKCPPPEMLGGPSIFIFPPKPKDTLYISRTPEVTCLVVDLGPDDSDVQITWFVDNTQVYTAKTSPREEQFNSTYRVVSVLPILHQDWLKGKEFKCKVNSKSLPSPIERTISKAKGQPHEPQVYVLPPAQEELSRNKVSVTCLIKSFHPPDIAVEWEITGQPEPENNYRTTPPQLDSDRTYFVYSKLSVDRSHWQRGNTYTCSVSHEALHRHHTQKSLTQSPGK"
unit_label = "nM"
recorded_measurement = 0.885


// switching to the query binder
Reported Kd ( feline IgG1a mutant ID No. 335: T250Q, S252H (antibody, part only; not given: Variable domains, not shown: another chain or arm of the molecule) constant: ASTTAPSVFPLAPSCGTTSGATVALACLVLGYFPEPVTVSWNSGALTSGVHTFPAVLQASGLYSLSSMVTVPSSRWLSDTFTCNVAHPPSNTKVDKTVRKTDHPPGPKPCDCPKCPPPEMLGGPSIFIFPPKPKDQLHISRTPEVTCLVVDLGPDDSDVQITWFVDNTQVYTAKTSPREEQFNSTYRVVSVLPILHQDWLKGKEFKCKVNSKSLPSPIERTISKAKGQPHEPQVYVLPPAQEELSRNKVSVTCLIKSFHPPDIAVEWEITGQPEPENNYRTTPPQLDSDGTYFVYSKLSVDRSHWQRGNTYTCSVSHEALHSHHTQKSLTQSPGK ) = 8.02
